- Tested on: LeARG1
- assay_info: Effect of various compounds on arginase activity, LeARG1
- Format: biochemical, Lycopersicon esculentum (tomato)
- conditions: compound 5.0 mM, 25 mM L-arginine; % of control reaction
reported_metric: Relative activity (%)
The reply should be a number in %, with the unit left off.

compound | test_target | quantitative_readout
O=C(O)CS [Mercaptoacetate] | LeARG1 | 28
NCCC[C@H](N)C(=O)O | LeARG1 | 72
CC(S)C(=O)O (stereo not shown) [2-Mercaptopropionate] | LeARG1 | 38

GET /value?item= O=C(O)CCS [3 -Mercaptopropionate] &field=Relative activity (%) returns 24

Hello, the source for this data is patent US9796984B2, in case you need it.
